Taken from patent US12319655B2.

system: H2405 cells; test: H2405 Cell Proliferation Assay (1); assay type: cell-based; details: Homo sapiens, NCI-H2405
pIC50: −log10 of the molar value.
pIC50 reference

Solved cases below.
Task item: Query the reported pIC50 for H2405 cells; item: Cc1ncc(NC(=O)c2ccnc(C(C)(C)C#N)c2)cc1-c1ccnc(-c2ccnc(NC(=O)C3CC3)c2)n1
Reply: ≥ 7.00

Task item: Notebook entry, H2405 cells assay: pIC50 of Cc1ncc(NC(=O)c2ccnc(C(C)(C)C#N)c2)cc1-c1cccc(-c2cc(NC(=O)C3CC3)ncn2)c1 = ?
Reply: ≥ 7.00

Task item: Which pIC50 is reported with H2405 cells for this entry: CNC(=O)c1cc(-c2cc(-c3cc(NC(=O)c4cccc(C(F)(F)F)c4)cnc3C)ccn2)ccn1 ?
Reply: ≥ 7.00

Task item: Hi! What's the reported pIC50 for COC(=O)Nc1cc(-c2cncc(-c3cc(NC(=O)c4ccnc(C5(C#N)CC5)c4)ccc3C)c2)ncn1 on H2405 cells?
Reply: ≥ 7.00

Task item: Give recorded pIC50 with H2405 cells for the following compound: Cc1ccc(NC(=O)c2ccnc(C(C)(C)C#N)c2)cc1-c1cccc(-c2ccnc(NC(=O)C3CC3)c2)c1
Reply: ≥ 7.00

More entries:
Task item: Lookup: pIC50 / H2405 cells / CNC(=O)c1cc(-c2cnnc(-c3cc(NC(=O)c4ccnc(C5CC5)c4)ccc3C)c2)ccn1
Reply: 5.00 to 6.00

Task item: What measured pIC50 is associated with Cc1ccc(NC(=O)c2cccc(C(C)(C)C#N)c2)cc1-c1cc(OCCO)nc(-c2ccnc3c2CC(=O)N3)c1 on H2405 cells?
Reply: ≥ 7.00

Task item: Requested read-out pIC50, target or system H2405 cells, entry Cc1ccc(NC(=O)c2ccnc(C(C)(C)C#N)c2)cc1-c1cncc(-c2ccnc(NC(=O)C3CC3)c2)n1
Reply: ≥ 7.00

Task item: Please state recorded pIC50 (tested on H2405 cells) of COC(=O)Nc1cc(-c2cncc(-c3cc(NC(=O)c4ccnc(C(C)(C)F)c4)ccc3C)c2)ccn1
Reply: ≥ 7.00

Task item: Under H2405 cells: pIC50 value of Cc1ccc(NC(=O)c2cnn(C(C)(C)C)c2)cc1-c1cc(-c2ccnc(NC(=O)C3CC3)c2)cnn1 ?
Reply: 6.30 to 7.00

###

Molecular target: B-Raf kinase (SEQ. ID NO: 2) (Homo sapiens (Human), UniProt P15056)
Sequence (P15056 416-766): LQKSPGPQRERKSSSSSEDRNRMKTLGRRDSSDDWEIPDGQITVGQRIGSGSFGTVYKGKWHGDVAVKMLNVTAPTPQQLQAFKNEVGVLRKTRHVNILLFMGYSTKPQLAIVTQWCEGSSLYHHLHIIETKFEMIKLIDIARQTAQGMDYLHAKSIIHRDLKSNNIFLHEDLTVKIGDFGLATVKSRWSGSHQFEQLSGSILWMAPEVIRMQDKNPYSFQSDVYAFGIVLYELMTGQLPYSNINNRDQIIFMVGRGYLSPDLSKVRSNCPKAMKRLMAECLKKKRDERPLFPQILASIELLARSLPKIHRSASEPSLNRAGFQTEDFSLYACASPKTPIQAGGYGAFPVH
Test: Biochemical Assay for B-Raf (2)
Details: Table J, biochemical assay (2); read-out: BRAF (2)
Protocol: Biochemical Assay for B-Raf (2) Activity of B-Raf kinase (SEQ. ID NO: 2) was determined spectroscopically using a coupled pyruvate kinase/lactate dehydrogenase assay that continuously monitors the ATP hydrolysis-dependent oxidation of NADH (e.g., Schindler et al., Science, 2000, 289, 1938-1942). […] Inhibition of B-Raf was measured by adding serial diluted test compound (final assay concentration of 1% DMSO). […] The reaction rate was calculated using the 2 to 3 h time frame. […]
pIC50: −log10 of the molar value.
measure: pIC50

Worked examples, 3 compounds total:
Task item: # query: pIC50 of entry CNC(=O)c1cc(-c2cc(-c3cc(NC(=O)c4ccnc(C(C)(C)F)c4)ccc3Cl)ccn2)ccn1 [Example 485]
Reply: 6.30 to 7.00

Task item: Given the entry CNC(=O)c1cc(-c2cc(-c3cc(NC(=O)c4ccnc(C(C)(C)F)c4)ccn3)ccn2)ccn1 [Example 481] , report its measured pIC50.
Reply: 5.00 to 6.00

Task item: Report pIC50 for Cc1ccc(NC(=O)c2cccc(C(F)(F)F)c2)cc1-c1ccnc(-c2ccnc(NC(=O)C3CC3)c2)c1 [Example 502] please.
Reply: ≥ 7.00

Others:
Task item: I have this compound here, CNC(=O)c1cc(-c2cc(-c3cc(NC(=O)c4ccnc(C(C)(C)F)c4)cnc3C)ccn2)ccn1 [Example 444] , and I need its recorded pIC50.
Reply: 6.30 to 7.00

###

test system: WM3928 cells; test: WM3928 Cell Proliferation Assay (1); format: cell-based
pIC50: −log10 of the molar value.
pIC50 for assorted compounds

Answered cases to consult:
Task item: Enter reported pIC50 observed with WM3928 cells for CC(=O)Nc1cc(-c2cc(-c3cc(NC(=O)c4ccnc(C(F)(F)F)c4)c(F)cc3C)cc(OC(C)C)n2)ccn1
Reply: ≥ 7.00

Task item: Reported pIC50 for WM3928 cells, given COC(=O)Nc1cc(-c2ccnc(-c3cc(NC(=O)c4ccnc(C(C)(C)F)c4)ccc3C)n2)ccn1 ?
Reply: ≥ 7.00

Task item: Kindly state the measured pIC50 obtained for CNC(=O)c1cc(-c2cc(-c3cc(NC(=O)c4ccnc(C(C)(C)C#N)c4)cnc3C)ccn2)ccn1 with WM3928 cells.
Reply: 6.30 to 7.00

New cases:
Task item: # get_value(readout= pIC50, system= WM3928 cells) for Cc1ncc(NC(=O)c2cn(C(C)C)nn2)cc1-c1ccnc(-c2ccnc(NC(=O)C3CC3)c2)n1
Reply: 5.00 to 6.00

###

target: B-Raf kinase (SEQ. ID NO: 2) (Homo sapiens (Human), UniProt P15056); assay: Biochemical Assay for B-Raf (1); settings: Table J, assay version (1); read-out: BRAF (1) IC50
pIC50: −log10 of the molar value.
measure: pIC50

Task item: Param item = Cc1ncc(NC(=O)CC2COC2)cc1-c1nccc(-c2ccnc(NC(=O)C3CC3)c2)n1 [Example 355] ; retrieve measured pIC50.
Reply: 5.00 to 6.00

Task item: Requested field: pIC50. Item: CNC(=O)c1cc(-c2cnnc(-c3cc(NC(=O)c4ccnc(C(C)(C)OC)c4)ccc3C)c2)ccn1 [Example 328]
Reply: 6.00 to 6.30

Task item: Would you kindly share the measured pIC50 for Cc1cc(F)c(NC(=O)c2ccnc(C3(C#N)CC3)c2)cc1-c1ccnc(-c2ccnc(NC(=O)C3CC3)c2)n1 [Example 262] ?
Reply: ≥ 7.00

Note: attention shifts to another entry.
Task item: Give the measured pIC50 of CC(=O)Nc1cc(-c2cc(-c3cc(C(=O)Nc4ccnc(C(F)(F)F)c4)ccc3C)ccn2)ccn1 [Example 26] .
Reply: ≥ 7.00

###

Entries annotated with measured IC50
target: C-Raf kinase (SEQ. ID NO: 3) (Homo sapiens (Human), UniProt P04049, Y340D/Y341D); assay: Biochemical Assay for C-Raf (1); conditions: Table J, assay version (1); read-out: CRAF (1) IC50
Sequence (P04049 307-648 Y340D/Y341D): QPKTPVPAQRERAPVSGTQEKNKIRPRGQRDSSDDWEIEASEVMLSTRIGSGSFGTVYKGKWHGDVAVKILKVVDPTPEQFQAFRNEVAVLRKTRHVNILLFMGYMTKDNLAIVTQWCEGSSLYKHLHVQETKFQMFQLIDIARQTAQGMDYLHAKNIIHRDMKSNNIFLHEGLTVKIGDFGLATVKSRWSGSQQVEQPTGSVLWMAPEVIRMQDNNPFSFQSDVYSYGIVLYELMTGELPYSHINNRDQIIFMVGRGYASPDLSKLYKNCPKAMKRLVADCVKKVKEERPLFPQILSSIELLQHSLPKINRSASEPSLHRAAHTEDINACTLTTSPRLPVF

Known results for molecules:
Task item: // returns reported IC50 for input Cc1ccc(NC(=O)c2ccnc(C(F)(F)F)c2)cc1-c1cc(-c2ccnc(N)c2)n(C)c(=O)c1
Reply: 100 to 500 nM

Task item: Item COCCNc1cc(-c2cccc(-c3cc(NC(=O)c4ccnc(C(F)(F)F)c4)ccc3C)c2)ncn1 has what recorded IC50?
Reply: ≤ 100 nM

Task item: Which IC50 is reported for this molecule? Cc1ccc(NC(=O)c2ccnc(C(C)(C)C#N)c2)cc1-c1cccc(-c2ccnc3[nH]ccc23)c1
Reply: 100 to 500 nM

Task item: Can you look up the measured IC50 of Cc1ccc(NC(=O)c2cn(C(C)C)nn2)cc1-c1cc(-c2ccnc(NC(=O)C3CC3)c2)cnn1 for me?
Reply: ≤ 100 nM

Task item: // lookup IC50 for Cc1ccc(NC(=O)c2ccnc(C(C)(C)F)c2)cc1-c1nccc(-c2ccnc(NC(=O)C3CC3)c2)n1
Reply: ≤ 100 nM

Let us move to another entry and its IC50.
Task item: Param item = Cc1ccc(NC(=O)c2ccnc(C(C)(C)C#N)c2)cc1-c1cc(-c2ccnc(C(=O)NC3CC3)c2)cnn1 ; retrieve measured IC50.
Reply: 500 to 1000 nM

###

Readings of pIC50 for the listed compounds
biological target: C-Raf kinase (SEQ. ID NO: 3) (Homo sapiens (Human), UniProt P04049, Y340D/Y341D); experiment: Biochemical Assay for C-Raf (1); conditions: Table J, assay version (1); read-out: CRAF (1) IC50
pIC50: −log10 of the molar value.

Task item: What value of pIC50 on C-Raf kinase (SEQ. ID NO: 3) (Homo sapiens (Human), UniProt P04049, Y340D/Y341D) does CC(=O)Nc1cc(-c2nccc(-c3cc(NC(=O)c4cccc(C(C)(C)C#N)c4)ccc3C)n2)ccn1 have?
Reply: ≥ 7.00

Task item: # query: pIC50 | item COC(=O)Nc1cc(-c2cccc(-c3cc(NC(=O)c4ccnc(C(C)(C)C#N)c4)cnc3C)c2)ccn1 | system: C-Raf kinase (SEQ. ID NO: 3) (Homo sapiens (Human), UniProt P04049, Y340D/Y341D)
Reply: ≥ 7.00

Task item: Hi! What's the reported pIC50 for CC(=O)Nc1cc(-c2cc(-c3cc(NC(=O)c4ccnc(C(C)(C)C#N)c4)c(F)cc3C)ccn2)ccn1 on C-Raf kinase (SEQ. ID NO: 3) (Homo sapiens (Human), UniProt P04049, Y340D/Y341D)?
Reply: ≥ 7.00

***
Task item: # value lookup — system C-Raf kinase (SEQ. ID NO: 3) (Homo sapiens (Human), UniProt P04049, Y340D/Y341D), readout pIC50, item CNC(=O)c1cc(-c2cc(-c3cc(NC(=O)c4ccnc(C)c4)ccc3C)ncn2)ccn1
Reply: ≥ 7.00

Task item: Field: pIC50 (C-Raf kinase (SEQ. ID NO: 3) (Homo sapiens (Human), UniProt P04049, Y340D/Y341D)). Entry: Cc1ccc(NC(=O)c2ccnc(C(C)(C)C#N)c2)cc1-c1cncc(-c2ccnc(N)c2)n1
Reply: ≥ 7.00

Task item: Lab note: need pIC50 with C-Raf kinase (SEQ. ID NO: 3) (Homo sapiens (Human), UniProt P04049, Y340D/Y341D) for entry Cc1ccc(NC(=O)c2ccnc(C3(C#N)CC3)c2)cc1-c1cccc(-c2cc(NC(=O)C3CC3)ncn2)n1 , please look it up.
Reply: 6.30 to 7.00

Task item: Can you look up pIC50 on C-Raf kinase (SEQ. ID NO: 3) (Homo sapiens (Human), UniProt P04049, Y340D/Y341D) for CNC(=O)c1cc(-c2cnnc(-c3cc(NC(=O)c4ccnc(C5CC5)c4)cnc3C)c2)ccn1 ?
Reply: 6.30 to 7.00

Task item: Given the entry CNC(=O)c1cc(-c2cc(-c3cc(NC(=O)c4cccc(C(F)(F)F)c4)cnc3C)ccn2)ccn1 , what pIC50 was observed with C-Raf kinase (SEQ. ID NO: 3) (Homo sapiens (Human), UniProt P04049, Y340D/Y341D)?
Reply: ≥ 7.00

Task item: Can you look up pIC50 on C-Raf kinase (SEQ. ID NO: 3) (Homo sapiens (Human), UniProt P04049, Y340D/Y341D) for Cc1ncc(NC(=O)C2CCC3(CC2)COC3)cc1-c1nccc(-c2ccnc(NC(=O)C3CC3)c2)n1 ?
Reply: 5.00 to 6.00

Task item: Lab request: please report pIC50 under test system C-Raf kinase (SEQ. ID NO: 3) (Homo sapiens (Human), UniProt P04049, Y340D/Y341D) for CNC(=O)c1cc(-c2ccnc(-c3cc(NC(=O)c4ccnc(C(C)(C)C#N)c4)cnc3C)n2)ccn1
Reply: 6.30 to 7.00

Task item: Identify the measured pIC50 of COCC(=O)Nc1cc(-c2nccc(-c3cc(NC(=O)c4ccnc(C(C)(C)C#N)c4)ccc3C)n2)ccn1 for C-Raf kinase (SEQ. ID NO: 3) (Homo sapiens (Human), UniProt P04049, Y340D/Y341D).
Reply: ≥ 7.00

Task item: Entry Cc1ncc(NC(=O)c2ccnc(C3CC3)c2)cc1-c1ccnc(-c2ccnc(NC(=O)C3CC3)c2)n1 , system C-Raf kinase (SEQ. ID NO: 3) (Homo sapiens (Human), UniProt P04049, Y340D/Y341D): what pIC50 was measured?
Reply: ≥ 7.00

Task item: Form field: pIC50 recorded for Cc1cc(F)c(NC(=O)c2ccnc(C(F)(F)F)c2)cc1-c1ccnc(-c2ccnc(NC(=O)CN(C)C)c2)c1 with C-Raf kinase (SEQ. ID NO: 3) (Homo sapiens (Human), UniProt P04049, Y340D/Y341D) (enter value)
Reply: ≥ 7.00

Task item: Give C-Raf kinase (SEQ. ID NO: 3) (Homo sapiens (Human), UniProt P04049, Y340D/Y341D) pIC50 for CC(=O)Nc1cc(-c2nccc(-c3cc(NC(=O)c4ccnc(C(F)(F)F)c4)c(F)cc3C)n2)ccn1
Reply: ≥ 7.00

Task item: Hello, I am looking for reported pIC50 with C-Raf kinase (SEQ. ID NO: 3) (Homo sapiens (Human), UniProt P04049, Y340D/Y341D) for Cc1ccc(NC(=O)c2ccnc(C3(C#N)CC3)c2)cc1-c1cccc(-c2cc(NC(=O)C3CC3)ncn2)c1 . Could you help?
Reply: ≥ 7.00
